Reference source: patent US12077503B2

# Test system: barnyardgrass (Echinochloa crus-galli)
# method.notes: Test G Post-Emergence Protocol
# Format: in vivo
# test.settings: Echinochloa crus-galli, post-emergence, 312 h, 250 g ai/ha, evaluated after 13 days, read-out: damage to plant, Barnyardgrass (100=total damage to plant; 0=no damage to plant)
value.type: pest or weed control at 250 g/ha
Provide the measurement as a number trailed by its unit.

Here are 5 molecules together with their reported answers.
molecule: CN1C[C@@H](c2ccc(C(F)(F)F)cc2)[C@H](C(=O)Nc2nc[nH]n2)C1=O (racemic) [Compound 1534]
measurement.target: barnyardgrass (Echinochloa crus-galli)
pest or weed control at 250 g/ha: 0%

molecule: CN1C[C@@H](c2cc(Cl)cc(C(F)(F)F)c2)[C@H](C(=O)Nc2ccccc2F)C1=O (racemic) [Compound 1414]
measurement.target: barnyardgrass (Echinochloa crus-galli)
pest or weed control at 250 g/ha: 60%

molecule: CN1C[C@@H](c2ccc(C(F)(F)F)cc2)[C@H](C(=O)Nc2cccc(F)c2C(F)(F)F)C1=O (racemic) [Compound 1609]
measurement.target: barnyardgrass (Echinochloa crus-galli)
pest or weed control at 250 g/ha: 70%

molecule: CN1C[C@@H](c2ccc(C(F)(F)F)cc2)[C@H](C(=O)Nc2ccnc(Cl)n2)C1=O (racemic) [Compound 1544]
measurement.target: barnyardgrass (Echinochloa crus-galli)
pest or weed control at 250 g/ha: 0%

molecule: C=CCc1c(Cl)cccc1NC(=O)[C@H]1C(=O)N(C)C[C@H]1c1ccc(C(F)(F)F)cc1 (racemic) [Compound 1439]
measurement.target: barnyardgrass (Echinochloa crus-galli)
pest or weed control at 250 g/ha: 10%

Could you report pest or weed control at 250 g/ha for every entry in the following list?
1. Cc1cc(NC(=O)[C@@H]2C(=O)N(C)C[C@H]2c2ccc(C(F)(F)F)cc2)no1 (racemic) [Compound 1556]
2. CN1C[C@@H](c2ccc(NS(C)(=O)=O)cc2)[C@H](C(=O)Nc2ccccc2F)C1=O (racemic) [Compound 1416]
3. CN1C[C@H](c2ccc(C(F)(F)F)cc2)[C@](C)(C(=O)Nc2cccc(F)c2F)C1=O (racemic) [Compound 1406]
4. CN1C[C@H](c2ccc(F)c(OCC(F)(F)F)c2)[C@@H](C(=O)Nc2ccccc2F)C1=O (racemic) [Compound 1456]
5. CN1C[C@@H](c2ccc(C(F)(F)F)cc2)[C@H](C(=O)Nc2cc[nH]n2)C1=O (racemic) [Compound 1533]

A.
20%
0%
20%
20%
0%

Required: pest or weed control at 250 g/ha, one value per molecule below.
1. Cc1cc(C(F)(F)F)ccc1[C@@H]1CN(C)C(=O)[C@H]1C(=O)Nc1ccccc1F (racemic) [Compound 1415]
2. CN1C[C@@H](c2ccc(C(F)(F)F)cc2)[C@H](C(=O)Nc2ncc(Br)cn2)C1=O (racemic) [Compound 1514]
3. CN1C[C@H](c2ccc(C(F)(F)F)cc2)[C@@H](C(=O)Nc2ccccc2C(C)(C)C)C1=O (racemic) [Compound 1445]
4. CN1C[C@@H](c2ccc(C(F)(F)F)cc2)[C@H](C(=O)Nc2nccnc2Cl)C1=O (racemic) [Compound 1552]

A.
1. 60%
2. 0%
3. 0%
4. 0%

---

# System: pigweed (Amaranthus retroflexus)
# method.notes: Test A preemergence
# Assay type: in vivo
# test.settings: Amaranthus retroflexus, pre-emergence, 240 h, 500 g ai/ha, Preemergence, visual injury vs untreated controls after approximately 10 d; read-out: Pigweed plant response rating (0 to 100 scale where 0 is no effect and 100 is complete control)
Can you tell me pest or weed control at 500 g/ha for the items I'm about to list?
Answers are plain numbers, in %.

compound: CN1C[C@H](c2cc(F)cc(F)c2)[C@@H](C(=O)Nc2ncc(C(F)(F)F)cc2F)C1=O [Compound 868]
value.type: pest or weed control at 500 g/ha
recorded.number: 0

Give pest or weed control at 500 g/ha for all compounds that follow.
1. Cc1cc(C)cc([C@H]2CN(C)C(=O)[C@@H]2C(=O)Nc2ccccc2F)c1 [Compound 910]
2. O=C1NC[C@H](c2ccc3c(c2)CCCO3)[C@H]1C(=O)Nc1ccccc1F [Compound 885]

A.
[30, 0]

Items follow; give pest or weed control at 500 g/ha for each.
1. O=C1NCC(c2cccc(I)c2)C1C(=O)Nc1ccccc1F (centres unmarked) [Compound 845]
2. CC(C)c1cccc([C@H]2CN(C)C(=O)[C@@H]2C(=O)Nc2ccc(F)cc2F)c1 [Compound 821]
3. CC(C)c1cccc([C@H]2CN(C)C(=O)[C@@H]2C(=O)Nc2ccccc2S(C)(=O)=O)c1 [Compound 820]
4. Cc1cc(C)cc([C@H]2CNC(=O)[C@@H]2C(=O)Nc2ccccc2C(F)(F)F)c1 [Compound 909]
5. COc1c(F)ccc([C@H]2CNC(=O)[C@@H]2C(=O)Nc2ccccc2F)c1Cl [Compound 881]

A.
1: 0; 2: 50; 3: 70; 4: 0; 5: 0
